Here, each record is paired with measured growth data.
test system: MALME-3M melanoma; assay: NCI-60 one-dose screen, 48 h (100 = growth as untreated, 0 = no growth, -100 = all killed); details: 10 µM unless noted
The panel holds about 83,000 compounds, 20% with a hit somewhere; the sample as a whole holds those more often.
Numeric answer only, unit % assumed.

Solved entries:
>>> df
                    structure_smiles_string        test_system  numeric_value
0  Oc1ccccc1/C=N/Nc1nc(N/N=C/c2ccccc2O)nc(N2CCOCC2)n1  MALME-3M melanoma           52.6
1             Cn1nc(Nc2ccccc2)c(C(=O)NN)c1N  MALME-3M melanoma           90.9
2  O=C(NCCCNc1cc(-c2cn(-c3ccccc3)nc2-c2cccc(O)c2)ccn1)Nc1cccc(C(F)(F)F)c1  MALME-3M melanoma           17.7

Q) Give the reported value of growth for this record: O=C(/C=C/Nc1ccc(S(=O)(=O)O)cc1)c1ccc(F)cc1
A) 105

Q) Give the reported value of growth for this record: Cc1cn(-c2cc(NC(=O)c3cncc(C#Cc4cnc5ccc(O[C@@H]6CCOC6)nn45)c3)cc(C(F)(F)F)c2)cn1
A) -83
